# system under test: SIX1 homeodomain (reference allele) (human, UniProt Q15475 108-198)
# Sequence: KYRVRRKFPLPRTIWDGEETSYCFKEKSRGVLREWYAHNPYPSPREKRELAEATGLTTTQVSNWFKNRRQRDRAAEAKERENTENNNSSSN
# assay details: universal protein binding microarray; Universal all-10-mer PBM (8x60K, AMADID 030236), 300 nM GST-tagged protein, Alexa Fluor 488 anti-GST; buffer, salt, pH and temperature not stated (as in Berger); high values mean tight binding
# condition set: protein: ivt; tags: N-terminal GST; dsDNA, one strand shown
Over roughly 33,000 sequences, “e-score” has its median near -0.053; the highest 2% begin near 0.38. The entries come from a sample that favours the highest values as a whole.
experimental endpoint: binding signal (E-score)
Form entry: value (E-score) — number only.

The examples below pair each entry with its known result.
> print(dat)
    construct.sequence  test.result
 1            CGATCCTA        0.299
 2            GGATACTA        0.371
 3            GTGTATTA        0.271
 4            CTGGATCA        0.326
 5            GGATCCTA        0.377
 6            ATCCTGAC        0.228
 7            CTGAGCCC        0.161
 8            GCAAGATA         0.17
 9            ATGTATAC        0.325
10            CCATTATA        0.177

Requested read-out: binding signal. Entry: `GTAGATCA`
0.29

Also, `GGATCCAA` please.
0.41

What do you have for `ATGTATCG` ?
0.38

What do you get for `CGGGCTCA` ?
0.2

// same read-out, input: `ATCCCATA`
0.351

Entry to check: `GTGTATCA`
0.462

Same thing, different sequence: `TCACATGA`
0.166

Subsequent entry: `GGATCCAC`
0.317

Subsequent entry: `GGAGACAC`
0.219

Please do the same for `CACTATCA` as well.
0.276

Could you do the same for `AGATCCAA` , please?
0.204

Follow-up entry: `AGAGTGTA`
0.223

Now this one: `AGACGATC`
0.285

Then `ATGTATAA` ?
0.154

----------
# system under test: SIX1 homeodomain (reference allele) (human, UniProt Q15475 108-198)
# Sequence: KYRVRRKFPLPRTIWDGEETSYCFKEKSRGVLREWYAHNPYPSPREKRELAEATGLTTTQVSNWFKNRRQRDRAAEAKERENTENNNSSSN
# assay details: universal protein binding microarray; Universal all-10-mer PBM (8x60K, AMADID 030236), 300 nM GST-tagged protein, Alexa Fluor 488 anti-GST; buffer, salt, pH and temperature not stated (as in Berger); high values mean tight binding
# condition set: protein: ivt; tags: N-terminal GST; dsDNA, one strand shown
In all, about 33,000 sequences were measured (“e-score”: median about -0.053, highest 2% from about 0.38 on). The sample as a whole holds a higher share of the highest values than the screen did.
binding signal values, listed per item
State just the number; it will be interpreted in E-score.

Field: example entries. Status: answers known.
> print(dat)
    construct.sequence  experimental.endpoint  test.result
 1            ACGCATAT         binding signal        0.233
 2            GACAGATC         binding signal        0.286
 3            GTATTACA         binding signal        0.227
 4            CATAGATA         binding signal        0.259
 5            CATATGAC         binding signal        0.166
 6            ATCTGACC         binding signal        0.282
 7            ACATAGTA         binding signal        0.205
 8            AATCCGCG         binding signal          0.2
 9            AGATACTG         binding signal        0.342
10            ATCTGATA         binding signal        0.446

Endpoint output: binding signal of `ATATTATG` . Value?
0.299

Request: `AATCCGCC`
0.212

And the next one, `CAATGATA` ?
0.418

Can you handle `TATGGTAA` next?
0.166

Moving on to `ACCTGATA`
0.401

Next entry: `ATCGCTGG`
0.23

Then this sequence: `CGGATTAA`
0.351

Now try `ATCTGATC` .
0.419

Lookup `TATCCGCA`
0.401

Input `AATCCGCT`
0.191

Then what about the sequence `CGATACTC` ?
0.454

Now the sequence `TACTCGAA`
0.152

Same read-out for `CACCCGGA` ?
0.276

Another: `GATCCGCC`
0.427

Then this sequence: `ATCATACA`
0.306

Moving on to the next sequence: `GTGATACA`
0.444

Now consider `GAATGATC` .
0.306

Let us now turn to `TCGATACA`
0.348

// same read-out, input: `ATGATGCC`
0.157

// query: `CGATCGGC`
0.18

----------
# system under test: SIX1 homeodomain (reference allele) (human, UniProt Q15475 108-198)
# Sequence: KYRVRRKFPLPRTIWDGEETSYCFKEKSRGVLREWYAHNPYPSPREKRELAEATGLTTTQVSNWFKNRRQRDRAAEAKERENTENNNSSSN
# assay details: universal protein binding microarray; Universal all-10-mer PBM (8x60K, AMADID 030236), 300 nM GST-tagged protein, Alexa Fluor 488 anti-GST; buffer, salt, pH and temperature not stated (as in Berger); high values mean tight binding
# condition set: protein: ivt; tags: N-terminal GST; dsDNA, one strand shown
In all, about 33,000 sequences were measured (“e-score”: median about -0.053, highest 2% from about 0.38 on). The entries come from a sample that favours the highest values as a whole.
Would you mind classing the entries by binding signal? Ranges: lower level (below 0.2 E-score), middle level (0.2 E-score to below 0.3 E-score), upper level (0.3 E-score or more)

The following sequences have reported results that may help.
> print(dat)
   construct.sequence         label
1            AAGCCGGA   lower level
2            ACACGATC  middle level
3            GGTGTAAC   upper level

Hey, which category is `ACATGATA` in, do you know?
upper level

Same question for `ACTATATA` please.
middle level

----------
# system under test: SIX1 homeodomain (reference allele) (human, UniProt Q15475 108-198)
# Sequence: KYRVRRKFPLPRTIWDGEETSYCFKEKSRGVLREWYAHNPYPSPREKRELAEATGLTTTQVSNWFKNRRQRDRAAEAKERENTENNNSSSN
# assay details: universal protein binding microarray; Universal all-10-mer PBM (8x60K, AMADID 030236), 300 nM GST-tagged protein, Alexa Fluor 488 anti-GST; buffer, salt, pH and temperature not stated (as in Berger); high values mean tight binding
# condition set: protein: ivt; tags: N-terminal GST; dsDNA, one strand shown
In all, about 33,000 sequences were measured (“e-score”: median about -0.053, highest 2% from about 0.38 on). Only a selection was taken, and the highest values are over-represented in it overall.
// binding signal lookup, one value per entry
Give the number; E-score is assumed, so skip it.

Example entries begin here.
> print(dat)
   construct.sequence  experimental.endpoint  readout.unit  test.result
1            CGATATCG         binding signal       E-score        0.439
2            GGCGTATA         binding signal       E-score        0.179

Query (sequence): `CGCGTATA` ; field requested: binding signal
0.232

Again, but for `CCATCTGA`
0.259

Another sequence to look at: `AGCGTATA`
0.233

Next sequence: `AGACACCA`
0.329

----------
# system under test: SIX1 homeodomain (reference allele) (human, UniProt Q15475 108-198)
# Sequence: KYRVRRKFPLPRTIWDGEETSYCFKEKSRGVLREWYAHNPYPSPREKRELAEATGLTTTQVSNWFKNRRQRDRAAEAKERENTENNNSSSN
# assay details: universal protein binding microarray; Universal all-10-mer PBM (8x60K, AMADID 030236), 300 nM GST-tagged protein, Alexa Fluor 488 anti-GST; buffer, salt, pH and temperature not stated (as in Berger); high values mean tight binding
# condition set: protein: ivt; tags: N-terminal GST; dsDNA, one strand shown
Whole data set: some 33,000 sequences, median “e-score” near -0.053, cut for the highest 2% near 0.38. This excerpt belongs to a sample that is enriched for the highest values.
Binary label based on binding signal with cut-off 0.3 E-score: below gives class 1, not below gives class 0.

> print(dat)
   construct.sequence    label
1            CCAATTAG  class 1

Is binding signal of `ATACCTCG` strictly below 0.3 E-score?
class 0
